- SYSTEM_UNDER_TEST: human 5-HT2A (Homo sapiens (Human), UniProt P28223)
- TEST_NAME: cell-based
- Format: cell-based
- REPORTED_CONDITIONS: IP assay, % of Rmax of 5-HT
# strict inequality: 5-HT2A Rmax < 60% yields true (1), everything else yields false (0)

Query: Here's an entry: `COc1cc([C@@H]2CCCNC2)c(OC)cc1SC.Cl` . Is its 5-HT2A Rmax below 60%?
Reply: false (0)

Query: Here's an entry: `CCOc1cc(C(F)(F)F)c(OC)cc1[C@@H]1CCCNC1.Cl` . Is its 5-HT2A Rmax below 60%?
Reply: true (1)

Query: Here's an entry: `COc1cc([C@@H]2CCCNC2)c(OC)cc1Cl` . Is its 5-HT2A Rmax below 60%?
Reply: false (0)

Query: Here's an entry: `CCc1cc(OC)c([C@@H]2CCCNC2)cc1OC.Cl` . Is its 5-HT2A Rmax below 60%?
Reply: false (0)

Query: Here's an entry: COc1cc(C2CC[C@@H](c3ccccc3OC)NC2)c(OC)cc1Br (stereo partly shown) [Compound 8a, reference compound] . Is its 5-HT2A Rmax below 60%?
Reply: false (0)

Query: Here's an entry: `COc1cc([C@@H]2CCCNC2)c(OC)cc1SC(C)C` . Is its 5-HT2A Rmax below 60%?
Reply: false (0)

Query: Here's an entry: `COc1cc([C@@H]2CCCNC2)c(OC)cc1Br` . Is its 5-HT2A Rmax below 60%?
Reply: false (0)

Query: Here's an entry: `COc1cc([C@@H]2CCCNC2)c(OC)cc1C#N` . Is its 5-HT2A Rmax below 60%?
Reply: false (0)

* * *

- SYSTEM_UNDER_TEST: human 5-HT2A (Homo sapiens (Human))
- TEST_NAME: cell-based
- Format: cell-based
- REPORTED_CONDITIONS: agonist potency, n = 3-4; read-out: 5-HT2A [pEC50 ± S.E.M.] (converted)
Where a name gives a salt, the structure may show the parent alone.
Parameter: EC50. Scope: all listed entries.
Could you give me the number in nM? Just the number is fine.

Sample answers from the record:
COc1cc([C@@H]2CCCNC2)c(OC)cc1C.Cl [Compound 24, hydrochloride]    105
COc1cc(C(F)(F)F)c(OC)cc1[C@H]1CCNC1 [Compound 5]    10.5
COc1cc(C(F)(F)F)c(OC)cc1[C@@H]1CCCN(C)C1 [Compound 61]    398
COc1cc(C(F)(F)F)c(OC)cc1C1CCC(C)NC1 (single isomer, unassigned) [Compound 37, hydrochloride]    263

Query: Please supply the value of reported EC50 for the item COc1cc([C@@H]2CCCNC2)ccc1C(F)(F)F.Cl [Compound 49, Hydrochloride]
Reply: 2450

Query: Please supply the value of reported EC50 for the item COc1cc([C@@H]2CCCNC2)c(OC2CC2)cc1C(F)(F)F [Compound 55, hydrochloride]
Reply: 1070

Query: Please supply the value of reported EC50 for the item CCSc1cc([C@@H]2CCCNC2)c(OC)cc1C(F)(F)F.Cl [Compound 47, Hydrochloride]
Reply: 26.3

Query: Please supply the value of reported EC50 for the item COc1cc([C@H]2CCNC2)c(OC)cc1Br [Compound 3]
Reply: 7.76

Query: Please supply the value of reported EC50 for the item COc1cc([C@@H]2CCCNC2)c(OC)cc1C#N [Compound 16]
Reply: 275

* * *

- SYSTEM_UNDER_TEST: human 5-HT2A (Homo sapiens (Human))
- TEST_NAME: cell-based
- Format: cell-based
- REPORTED_CONDITIONS: IP assay, duplicate determinations
Where a name gives a salt, the structure may show the parent alone.
MEASURED_PROPERTY: EC50 (nM)
Could you give me the number in nM? Just the number is fine.

Sample answers from the record:
CCOc1cc(C(F)(F)F)c(OCC)cc1[C@@H]1CCCNC1.Cl [Compound 22, hydrochloride]    170
COc1cc(C2CC[C@@H](c3ccccc3OC)NC2)c(OC)cc1Br (stereo partly drawn) [Compound 8a, reference compound]    2300
COc1cc(C(F)(F)F)c(F)cc1[C@@H]1CCCNC1.Cl [Compound 51, hydrochloride]    260
COc1cc([C@@H]2CCCNC2)c(OC)cc1C.Cl [Compound 24, hydrochloride]    560
CCSc1cc([C@@H]2CCCNC2)c(OC)cc1C(F)(F)F.Cl [Compound 47, Hydrochloride]    130

Query: Under human 5-HT2A (Homo sapiens (Human)), report EC50 for COc1cc([C@@H]2CCCNC2)c(OC)cc1Cl [Compound 10]
Reply: 380

Query: Under human 5-HT2A (Homo sapiens (Human)), report EC50 for CCCCc1cc(OC)c([C@@H]2CCCNC2)cc1OC [Compound 57, hydrochloride]
Reply: 190

Query: Under human 5-HT2A (Homo sapiens (Human)), report EC50 for CCc1cc(OC)c([C@@H]2CCCNC2)cc1OC.Cl [Compound 32, hydrochloride]
Reply: 110

Query: Under human 5-HT2A (Homo sapiens (Human)), report EC50 for COc1cc(C(F)(F)F)c(OC)cc1C1CCCNC1C.Cl (stereo not drawn) [Compound 35, hydrochloride]
Reply: 260

Query: Under human 5-HT2A (Homo sapiens (Human)), report EC50 for CCOc1cc(C(F)(F)F)c(OC)cc1[C@@H]1CCCNC1.Cl [Compound 30, hydrochloride]
Reply: 140

Query: Under human 5-HT2A (Homo sapiens (Human)), report EC50 for COc1cc(C(F)(F)F)c(OC)cc1CCN [Compound 2C-TFM, reference compound]
Reply: 7.1

Query: Under human 5-HT2A (Homo sapiens (Human)), report EC50 for COc1cc([C@@H]2CCCNC2)c(OC)cc1I [Compound 14]
Reply: 45

Query: Under human 5-HT2A (Homo sapiens (Human)), report EC50 for COc1cc([C@@H]2CCCNC2)c(OCF)cc1C(F)(F)F [Compound 39]
Reply: 300

Query: Under human 5-HT2A (Homo sapiens (Human)), report EC50 for COc1cc([C@@H]2CCCNC2)c(OC)cc1SC.Cl [Compound 18, hydrochloride]
Reply: 270

Query: Under human 5-HT2A (Homo sapiens (Human)), report EC50 for CCSc1cc(OC)c([C@@H]2CCCNC2)cc1OC.Cl [Compound 28, hydrochloride]
Reply: 180

Query: Under human 5-HT2A (Homo sapiens (Human)), report EC50 for CCOc1cc([C@@H]2CCCNC2)c(OC)cc1C(F)(F)F.Cl [Compound 20, hydrochloride]
Reply: 36

Query: Under human 5-HT2A (Homo sapiens (Human)), report EC50 for CCOc1cc(CC)c(OC)cc1[C@@H]1CCCNC1 [Compound 43]
Reply: 670

* * *

- SYSTEM_UNDER_TEST: human 5-HT2A (Homo sapiens (Human), UniProt P28223)
- TEST_NAME: cell-based
- Type: cell-based
- REPORTED_CONDITIONS: agonist potency, n = 3-4; read-out: 5-HT2A EC50
pEC50: −log10 of the molar value. Counter-ions that a name gives are not always drawn.
pEC50 below 7 gives FALSE; pEC50 at or above it gives TRUE.

CCOc1cc([C@@H]2CCCNC2)c(OC)cc1CC.Cl [Compound 34, hydrochloride]    TRUE
COc1cc([C@H]2CCCNC2)ccc1C(F)(F)F.Cl [Compound 48, hydrochloride]    FALSE
CCSc1cc(OC)c([C@H]2CCCNC2)cc1OC [Compound 27, hydrochloride]    FALSE
COc1cc(C2CC[C@@H](c3ccccc3OC)NC2)c(OC)cc1Br (stereo partly drawn) [Compound 8a, reference compound]    FALSE

Query: Could you verify whether the entry COc1cc([C@H]2CCCNC2)c(OC)cc1SC [Compound 17, hydrochloride] shows pEC50 of no less than 7?
Reply: FALSE

Query: Could you verify whether the entry `COc1cc([C@@H]2CCCNC2)c(OC)cc1C#N` shows pEC50 of no less than 7?
Reply: FALSE

* * *

- SYSTEM_UNDER_TEST: UniProt:P28223
- TEST_NAME: cell-based
- Format: cell-based
- REPORTED_CONDITIONS: agonist potency, n = 3-4; read-out: 5-HT2A EC50
Where a name gives a salt, the structure may show the parent alone.
Parameter: pEC50. Scope: all listed entries.
Scale for pEC50: -log10 of concentration given in mol/L; no unit attached.

Sample answers from the record:
COc1cc([C@@H]2CCCNC2)c(OC)cc1Cl [Compound 10]    7.18
COc1cc([C@H]2CCCNC2)c(OC)cc1I [Compound 13]    6.59
COc1cc([C@@H]2CCCNC2)c(OC2CC2)cc1C(F)(F)F [Compound 55, hydrochloride]    5.96
CCN1CCC[C@@H](c2cc(OC)c(C(F)(F)F)cc2OC)C1 [Compound 59]    5.82
COc1cc([C@H]2CCCNC2)c(OC)cc1Cl [Compound 9]    6.16

Query: Under UniProt:P28223, report pEC50 for COc1cc(C(F)(F)F)c(F)cc1[C@@H]1CCCNC1.Cl [Compound 51, hydrochloride]
Reply: 6.85

Query: Under UniProt:P28223, report pEC50 for COc1cc(C(F)(F)F)ccc1[C@@H]1CCCNC1 [Compound 53, hydrochloride]
Reply: 7.16
